assay: in vivo; conditions: male, Sprague-Dawley, rat, 1 mg/kg, Average plasma concentrations
measurement-label: concentration at 30 min (ng/mL)
One number for each entry, in ng/mL.

[in] Can you share its concentration at 30 min? I mean this compound: `CCCCC[C@H](O)CC[C@@H]1[C@H]2Cc3cccc(OCC(=O)O)c3C[C@H]2C[C@H]1O`
[out] 21.9

###

assay: in vivo; details: male, Sprague-Dawley, rat, iv, 1 mg/kg, T½ (terminal plasma half-life)
measurement-label: half-life (h)
Give bare numbers, in h.

[in] Can you share its half-life? I mean this compound: `CCCCC[C@H](O)CC[C@@H]1[C@H]2Cc3cccc(OCC(=O)O)c3C[C@H]2C[C@H]1O`
[out] 1.57

###

experiment: in vivo; conditions: male, Sprague-Dawley, rat, iv, 1 mg/kg, Average (n = 3) plasma concentrations
measurement-label: concentration at 2 min
Report as: number unit

[in] Can you share its concentration at 2 min? I mean this molecule: CCCCC[C@H](O)CC[C@@H]1[C@H]2Cc3cccc(OCC(=O)O)c3C[C@H]2C[C@H]1O [Treprostinil, treprostinil]
[out] 1050 ng/mL

###

assay: in vivo; conditions: male, Sprague-Dawley, rat, iv, 1 mg/kg, Average (n = 3) plasma concentrations
measurement-label: concentration at 5 min (ng/mL)
Numbers only, in ng/mL.

[in] Can you share its concentration at 5 min? I mean this molecule: CCCCC[C@H](O)CC[C@@H]1[C@H]2Cc3cccc(OCC(=O)O)c3C[C@H]2C[C@H]1O [Treprostinil, treprostinil]
[out] 364

###

test: in vivo; conditions: male, Sprague-Dawley, rat, po, 1 mg/kg, Average (n = 3) plasma concentrations
measurement-label: concentration at 240 min (ng/mL)
Give bare numbers, in ng/mL.

[in] Can you share its concentration at 240 min? I mean this compound: `CCCCC[C@H](O)CC[C@@H]1[C@H]2Cc3cccc(OCC(=O)O)c3C[C@H]2C[C@H]1O`
[out] 1.82

###

assay: in vivo; conditions: male, Sprague-Dawley, rat, iv, 1 mg/kg, half-life of the distribution phase
measurement-label: half-life
Report as: number unit

[in] Can you share its half-life? I mean this compound: `CCCCC[C@H](O)CC[C@@H]1[C@H]2Cc3cccc(OCC(=O)O)c3C[C@H]2C[C@H]1O`
[out] 10.3 min

###

assay: in vivo; conditions: male, Sprague-Dawley, rat, 1 mg/kg, Average plasma concentrations
measurement-label: concentration at 360 min (ng/mL)
Numbers only, in ng/mL.

[in] Can you share its concentration at 360 min? I mean this molecule: `CCCCC[C@H](O)CC[C@@H]1[C@H]2Cc3cccc(OCC(=O)O)c3C[C@H]2C[C@H]1O`
[out] 4.95

###

assay: in vivo; conditions: male, Sprague-Dawley, rat, iv, 1 mg/kg, Average (n = 3) plasma concentrations
measurement-label: concentration at 120 min
Report as: number unit

[in] Can you share its concentration at 120 min? I mean this molecule: CCCCC[C@H](O)CC[C@@H]1[C@H]2Cc3cccc(OCC(=O)O)c3C[C@H]2C[C@H]1O [Treprostinil, treprostinil]
[out] 4.45 ng/mL

###

assay: in vivo; conditions: male, Sprague-Dawley, rat, po, 1 mg/kg, Individual AUC480 min
measurement-label: AUC(0-t) (ng·h/mL)
Numbers only, in ng·h/mL.

[in] Can you share its AUC(0-t)? I mean this compound: CCCCC[C@H](O)CC[C@@H]1[C@H]2Cc3cccc(OCC(=O)O)c3C[C@H]2C[C@H]1O [Treprostinil, treprostinil]
[out] 16.6
